Catalogue of switch fluorescence ratio values
Test system: ATP;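 also: ATP exposure 15 min at 22 °C before imaging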
Test: switch fluorescence ratio, 500 uM ATP over buffer (Cy3 cluster intensity, sum of 5 cycles each) (fold (ratio)); higher = stronger signal-on switching upon ATP binding; sequences stand for … in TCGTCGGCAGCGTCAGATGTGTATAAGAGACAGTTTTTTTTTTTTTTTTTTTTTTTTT…TC
Conditions: aptamer strand: ATP DNA aptamer (quencher-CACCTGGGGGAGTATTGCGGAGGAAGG + anchor), 100 nM annealed; ATP concentration: 500 uM
endpoint-name: switch fluorescence ratio

> print(dat)
   entry.sequence  experimental.system  measured.value
1      GCATTGGGGC                  ATP           0.989
2      ACATATGGGT                  ATP            1.01
3      GGCATTTGTA                  ATP               1
4      TGGGGATGGT                  ATP           0.991
5      GGTTGGGGAC                  ATP           0.971
6      TCCAGTTAGG                  ATP           0.998
7      GTTTTGGGGT                  ATP           0.986
8      CGCGGTGTCC                  ATP            1.02

----------
Entries and their switch fluorescence ratio
Tested on: ATP;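 also: ATP exposure 15 min at 22 °C before imaging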
Test: switch fluorescence ratio, 500 uM ATP over buffer (Cy3 cluster intensity, sum of 5 cycles each) (fold (ratio)); higher = stronger signal-on switching upon ATP binding; sequences stand for … in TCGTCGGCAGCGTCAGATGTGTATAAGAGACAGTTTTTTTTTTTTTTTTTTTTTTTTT…TC
Details: aptamer strand: ATP DNA aptamer (quencher-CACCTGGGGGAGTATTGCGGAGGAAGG + anchor), 100 nM annealed; ATP concentration: 500 uM
endpoint-name: switch fluorescence ratio

> print(dat)
    entry.sequence  measured.value
 1      AAGGTCAAGG            1.01
 2      GGTTAAGGCA            1.02
 3      ATTATCTACT            1.04
 4      TTAATGGCGG           0.995
 5      TACTTTAGGG            1.04
 6      GTTTTTAGGC            1.02
 7      GCCCCGGCTG            1.03
 8      GGCGGCGTCT           0.998
 9      ATCCTGCTTT            1.01
10      CTTATAGCGC            1.01
11      GGGAAAACTA               1
12      GGTGTTTTTT            0.99
13      TAAGGCGGGG           0.993
14      TTAGTTGGTC           0.996
15      TTTTGCCAGT            1.11
16      GTGTCCGTTT            1.05
17      ATATTTTGGC            1.04
18      GGGCTGAGGA               1
19      GAGAGTTTTC           0.985
20      AAACTGTAAT            1.08
21      CGTGTGGCCA               1
22      TTTGTTTGGC           0.983
23      GTTTCAACTG               1
24      ATCGAGAGGG            1.01
25      AGTGCGGGTG            1.13
26      GGTGCTTTTG           0.989
27      TGGCGGGTCG            1.06
28      TAACTATGTA            1.02
29      GTTATTGCGA           0.997
30      TCATCGGCTC            1.32
31      GGTGATTATT            1.02
32      CGTGTAAGTA            1.01
33      GAAGTAAAAA            1.01
34      CTGGAGACAG            1.07
35      TACGGGCACG            1.04
36      TTAAGGGTTT            1.01
37      AGGTAGGACT               1
38      GCTGCGGGCT            1.18
39      GTGGGGTCGA            1.01
40      TAGTGGGAGA            1.03
41      TCTATTGGCT            1.02
42      GCTCTTGTCT           0.985
43      TGATTGTATC           0.981
44      AATCCGGGGC            2.35
45      GTTTTTGTGA           0.969
46      TATAAAAAGC               1
47      GATTGCAGCG               1
48      TCGGAGTACT            1.16
49      GAAGGTTTGG           0.981
50      GGTTTCGTCC            1.02
51      TATTAGCTAT           0.998
52      GATTTTGGTC           0.967
53      AGGGGTAAGT           0.981
54      TCATGGGAAG            1.02
55      AACTGTTCTT            1.01
56      AATACGACGG            1.14
57      CTCGGGAGTA               1
58      TCTGTAAGAA            1.03
59      TTAAATGCCT            1.07
60      TTCGTGACCT             1.1
61      ACTGTGAATT            1.02
62      ACGCCGGGGT             1.3

----------
# switch fluorescence ratio per record follows
Test system: ATP;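 also: ATP exposure 15 min at 22 °C before imaging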
Experiment: switch fluorescence ratio, 500 uM ATP over buffer (Cy3 cluster intensity, sum of 5 cycles each) (fold (ratio)); higher = stronger signal-on switching upon ATP binding; sequences stand for … in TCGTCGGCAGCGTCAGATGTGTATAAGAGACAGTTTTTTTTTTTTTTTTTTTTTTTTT…TC
Conditions: aptamer strand: ATP DNA aptamer (quencher-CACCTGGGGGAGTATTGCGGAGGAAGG + anchor), 100 nM annealed; ATP concentration: 500 uM
endpoint-name: switch fluorescence ratio

> print(dat)
   entry.sequence  measured.value
1       CCACGAATT            1.01
2      AGTGAGTGTA           0.979
3      GGTGGGGTTT           0.999
4      TTTGGGGAGC           0.986
5      TAAGGGGTTC           0.982

----------
Let's look at some sequences and their measured switch fluorescence ratio.
Tested on: ATP;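 also: ATP exposure 15 min at 22 °C before imaging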
Test: switch fluorescence ratio, 500 uM ATP over buffer (Cy3 cluster intensity, sum of 5 cycles each) (fold (ratio)); higher = stronger signal-on switching upon ATP binding; sequences stand for … in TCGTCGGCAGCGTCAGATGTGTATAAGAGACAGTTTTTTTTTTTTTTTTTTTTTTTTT…TC
Details: aptamer strand: ATP DNA aptamer (quencher-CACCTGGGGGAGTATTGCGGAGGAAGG + anchor), 100 nM annealed; ATP concentration: 500 uM
endpoint-name: switch fluorescence ratio

> print(dat)
    entry.sequence  measured.value
 1      GGGGGGTGAG           0.974
 2      AATTGGTACG           0.992
 3      AGGCGACGTT           0.993
 4      TCTGTGGGGG            1.01
 5       ACTGAGTAA            1.01
 6      AGAGAGAGGT           0.992
 7      CAATTAGGAG           0.979
 8      ATAGGCGGAA            1.02
 9      TATGATTTAA            1.01
10      CTCGTTCCGG           0.997
11      TGTGATCGAC            1.01
12      ACTGTAGTTT            1.11
13      TTGTGGGGTC               1
14      GAGTTTTTTT           0.987
15      GCGGTGAGAA           0.983
16      TTAGGCAGGG               1
17      TGAAGGATGA           0.998
18      ATAGGGGATT               1
19      AGGTGTTTGT            1.01
20      TCGAGGGGCG            1.06
21      CACGCGTGGA               1
22      GCTAGGCTGG           0.973
23      GAGGCTTTTT           0.979
24      TAGGCGTCTG               1
25      GCGAATCGTA           0.999
26      TTTTACTAAA            1.06
27      CGTCTTGGTG           0.999
28      GAGAGAAAAT            1.49
29      CGGGGAGTAT           0.975
30      GGACATTATA            1.03
31       TTAAGTACG            1.22
32      CGGTCATAAG           0.982
33      TGGGGGGAAA            1.01
34      TTTAAAGCGC            1.02
35       TTTAATTTA            1.01
36      ACTGGGGATA           0.988
37      GAATGTCCGT           0.992
38      TTTCATTTTT           0.999
39      CCGGGGCCTG            1.05
40      TGGTTCTCGA           0.987
41      GGTGCCACTT            1.03
42      AAAATCGGCG            1.05
43      CGGGGGAATG           0.967
44      GTTATTCAAT           0.972
45      ATTATGAGTA           0.973
46      AAAATGGATG           0.983
47      GATGCTGGCG            1.01
48      ATTTACGGGT            1.02
49      GTTGATTTTC            1.02
50      ATCCGAGGGG            1.03
51       ACGGGGGTT            0.98
52      CATCGGGTAG           0.996
53      GAAATTCTAT           0.985
54      ATGATATCTC            1.02
55      GAAAGAGTGA            1.01
56      AAAGCTATTC            1.12
57      AGATTCATTT           0.984
58      TTTCTGGTTT               1

The measured values listed here are drawn from the supplement of paper PMC10126150.
